Test system: RAW-Dual
test details: NF-kB SEAP reporter activity, fold change vs agonist alone; cytotoxicity flag (confluency mask): not cytotoxic; higher = enhanced NF-kB activity
experimental parameters: agonist: ODN 1826 (TLR9) 0.5 ug/mL
Whole data set: some 2,900 compounds, median “NF-kB SEAP reporter activity, fold change vs agonist alone” near 0.99, cut for the highest 2% near 2.6. The list comes from a sample in which the highest values are over-represented; it also holds close analogues and randomly drawn compounds.
Could you please report measured NF-kB SEAP reporter activity for the items listed next?

// NF-kB SEAP reporter activity lookup, key: CC(C)(O)CNc1ncc(-c2ccnc(Nc3ccncc3)n2)c(CC2CC2)n1 (library stock concentration (final ~1000-fold dilution): 10 mM)
0.366

What NF-kB SEAP reporter activity value was documented for this molecule, COc1cc(Nc2nc3ccccc3nc2NS(=O)(=O)c2ccc(NC(=O)c3ccc(C)c(OC)c3)cc2)cc(OC)c1 (library stock concentration (final ~1000-fold dilution): 10 mM) ?
1.04

Given C=CC(=O)NC1CCOCC1Nc1ncc2cc(-c3c(Cl)c(OC)cc(OC)c3Cl)ccc2n1 (configuration not stated) (library stock concentration (final ~1000-fold dilution): 10 mM) , state its recorded NF-kB SEAP reporter activity.
0.827

Any idea what its NF-kB SEAP reporter activity is? The molecule is CCc1ccc(NC(=O)Nc2c[nH]c3ccccc23)cc1 (library stock concentration (final ~1000-fold dilution): 1 mM)
0.702

Query (molecule): NC(CSCCCO)C(=O)O (configuration not stated) (library stock concentration (final ~1000-fold dilution): 10 mM water) ; field requested: NF-kB SEAP reporter activity
1.09

Give the measured NF-kB SEAP reporter activity of CC(C)(O)CNc1ncc(-c2ccnc(Nc3ccnc(Cl)c3)n2)c(CC2CC2)n1 (library stock concentration (final ~1000-fold dilution): 10 mM) .
0.935

Which value of NF-kB SEAP reporter activity has been reported for CC(C)c1c(-c2ccccc2)[nH]c2c(C#N)cnn2c1=O.Cl (library stock concentration (final ~1000-fold dilution): 10 mM) in the records?
0.816

Which NF-kB SEAP reporter activity value belongs to COc1cnc(NS(=O)(=O)c2ccc(N)cc2)nc1 (library stock concentration (final ~1000-fold dilution): 10 mM) ?
0.999

NF-kB SEAP reporter activity lookup needed for N#CCNC(=O)c1ccc(-c2ccnc(Nc3ccc(N4CCOCC4)cc3)n2)cc1 (library stock concentration (final ~1000-fold dilution): 10 mM) , thanks.
1.01

Need NF-kB SEAP reporter activity of CC(=O)C(=O)Oc1ccccc1C(=O)O (library stock concentration (final ~1000-fold dilution): 10 mM) , thanks.
1.04

Can you look up the measured NF-kB SEAP reporter activity of CC1CN(CC(Cc2ccccc2)C(=O)NCC(=O)O)CCC1(C)c1cccc(O)c1 (configuration not stated) (library stock concentration (final ~1000-fold dilution): 10 mM) for me?
1.01

Name the reported NF-kB SEAP reporter activity value associated with the molecule C=CC(=O)N1CCN(CCCn2c(=O)c(-c3c(Cl)c(OC)cc(OC)c3Cl)cc3cnc(NC)nc32)CC1 (library stock concentration (final ~1000-fold dilution): 10 mM)
1.05

# NF-kB SEAP reporter activity lookup, item C=CC(=O)Nc1cccc(C)c1Nc1ncc2cc(-c3c(Cl)c(OC)cc(OC)c3Cl)ccc2n1 (library stock concentration (final ~1000-fold dilution): 2 mM)
1.08

Find the recorded NF-kB SEAP reporter activity belonging to COc1ccc(S(=O)(=O)Nc2cccnc2Nc2ccc(O)cc2)cc1 (library stock concentration (final ~1000-fold dilution): 10 mM) and report it.
3.17

I'd like to know its NF-kB SEAP reporter activity. The molecule in question is CC1CNCCCN1S(=O)(=O)c1cccc2cncc(F)c12.Cl.O.O (configuration not stated) (library stock concentration (final ~1000-fold dilution): 10 mM)
0.99

For the molecule O=C(NC1=CC(=O)[C@H]2O[C@H]2[C@H]1O)c1ccccc1O (library stock concentration (final ~1000-fold dilution): 10 mM) , what NF-kB SEAP reporter activity is on record?
0.951

Given COc1ccc(CCN(C)CCCC(C#N)(c2ccc(OC)c(OC)c2)C(C)C)cc1OC.Cl (configuration not stated) (library stock concentration (final ~1000-fold dilution): 10 mM) , state its recorded NF-kB SEAP reporter activity.
0.89

Report NF-kB SEAP reporter activity for CC(C)CN(CC(O)C(Cc1ccccc1)NC(=O)OC1CCOC1)S(=O)(=O)c1ccc(N)cc1 (configuration not stated) (library stock concentration (final ~1000-fold dilution): 10 mM) please.
1.74

// query NF-kB SEAP reporter activity value for entry COc1cc(N2CCN(C)CC2)ccc1Nc1nccc(-c2cn(C)c3cnccc23)n1 (library stock concentration (final ~1000-fold dilution): 10 mM)
0.192

Fill in: NF-kB SEAP reporter activity of Cc1nc(N)sc1-c1ccnc(Nc2ccc(N3CCOCC3)cc2)n1 (library stock concentration (final ~1000-fold dilution): 10 mM) is ___
0.256

Need NF-kB SEAP reporter activity of CC(C)(O)CNc1nc(Nc2ccnc(C(F)(F)F)c2)nc(-c2cccc(C(F)(F)F)n2)n1 (library stock concentration (final ~1000-fold dilution): 10 mM) , thanks.
1.61

For the molecule N#Cc1cc(-c2ccnc(Nc3ccc(N4CCOCC4)cc3)n2)ccc1OC1CCOCC1 (library stock concentration (final ~1000-fold dilution): 10 mM) , what NF-kB SEAP reporter activity is on record?
1.39
